Overview of recorded pIC50 for various molecules
Target chain: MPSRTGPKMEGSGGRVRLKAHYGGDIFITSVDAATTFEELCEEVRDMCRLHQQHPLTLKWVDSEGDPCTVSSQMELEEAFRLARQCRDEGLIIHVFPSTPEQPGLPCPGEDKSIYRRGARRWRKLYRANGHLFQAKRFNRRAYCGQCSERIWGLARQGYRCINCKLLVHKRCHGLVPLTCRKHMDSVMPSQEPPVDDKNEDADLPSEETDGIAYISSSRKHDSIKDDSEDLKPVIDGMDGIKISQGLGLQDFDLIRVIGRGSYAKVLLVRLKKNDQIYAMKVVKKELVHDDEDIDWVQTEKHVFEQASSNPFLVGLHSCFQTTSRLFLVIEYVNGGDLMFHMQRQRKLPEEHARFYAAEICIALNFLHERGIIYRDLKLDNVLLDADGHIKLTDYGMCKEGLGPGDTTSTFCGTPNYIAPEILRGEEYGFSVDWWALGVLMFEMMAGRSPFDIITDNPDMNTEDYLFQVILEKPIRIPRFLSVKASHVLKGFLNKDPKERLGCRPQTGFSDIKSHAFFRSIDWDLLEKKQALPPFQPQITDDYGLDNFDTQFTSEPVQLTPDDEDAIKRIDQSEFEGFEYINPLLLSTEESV
FYI, pIC50 means -log10 of a concentration in mol per litre.

Completed entries (count: 2):
CN1CCN(c2cccc3[nH]c(-c4n[nH]c5cc(-c6ccc7c[nH]nc7c6)ccc45)nc23)CC1 :: 5.97
CN1CCN(c2cccc3[nH]c(-c4n[nH]c5cc(-c6ccc(S(N)(=O)=O)cc6)ccc45)nc23)CC1 :: 5.05

Prompt: Given the entry CC(=O)Nc1ccc(-c2ccc3c(-c4nc5c(N6CCN(C)CC6)cccc5[nH]4)n[nH]c3c2)cc1 , report its measured pIC50.
Response: 5.06

Prompt: For CN1CCN(c2cccc3[nH]c(-c4n[nH]c5cc(-c6ccc(N(C)C)cc6)ccc45)nc23)CC1 , what is its reported pIC50?
Response: 5.88

Prompt: Sample COc1ccccc1-c1ccc2c(-c3nc4c(N5CCN(C)CC5)cccc4[nH]3)n[nH]c2c1 — what was its pIC50?
Response: 5.26

Prompt: Would you kindly share the measured pIC50 for CN1CCN(c2cccc3[nH]c(-c4n[nH]c5cc(-c6ccc7[nH]ccc7c6)ccc45)nc23)CC1 ?
Response: 5.39
